# studySystem: human PD-1 (human, UniProt Q15116 25-288)
# Sequence (Q15116 25-288 limits assumed): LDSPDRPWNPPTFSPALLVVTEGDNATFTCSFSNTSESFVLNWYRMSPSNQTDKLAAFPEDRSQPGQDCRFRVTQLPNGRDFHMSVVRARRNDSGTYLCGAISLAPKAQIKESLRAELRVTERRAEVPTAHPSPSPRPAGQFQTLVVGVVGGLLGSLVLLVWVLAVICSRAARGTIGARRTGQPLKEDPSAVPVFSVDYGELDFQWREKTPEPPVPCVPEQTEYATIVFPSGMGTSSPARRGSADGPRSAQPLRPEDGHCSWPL
# assayComment: cell-based or functional assay
endpoint: M07e-hPD-1 cell proliferation ratio (%) at 0.0001 nM
Write down the numeric answer in % and omit the unit.

The following binders have reported results that may help.
binder	observedResult
A-N88D-M28 (Fc fusion, not shown: IgG1 hinge (C220S) + Fc Knob chain as in A-N88D; IgG1 hinge (C220S) + Fc Hole chain as in A-N88D) chain (part 1 of 2): EVQLVESGGGLVQPGGSLRLSCAASGLTFSSYSMSWYRQAPGKGRELVAIISGSGGITHYADSVKGRFTISRDNAKNTLYLQMRSLRAEDTAVYYCRAVSDWQDYWGQGTQVTVSS chain (part 2 of 2): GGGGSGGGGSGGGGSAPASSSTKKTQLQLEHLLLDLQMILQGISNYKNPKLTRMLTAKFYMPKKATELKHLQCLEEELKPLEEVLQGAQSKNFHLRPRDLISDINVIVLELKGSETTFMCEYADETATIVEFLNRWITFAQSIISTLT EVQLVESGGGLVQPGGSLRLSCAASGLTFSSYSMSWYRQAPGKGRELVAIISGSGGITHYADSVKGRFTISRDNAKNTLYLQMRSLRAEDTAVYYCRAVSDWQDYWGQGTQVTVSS	7.2
A-N88D (Fc fusion, also called PD-1-IL-2v (N88D); not shown: IgG1 hinge (C220S) + Fc Knob chain (L234A, L235A, S354C, T366W, EU); D356/L358 or E356/M358 ver; IgG1 hinge (C220S) + Fc Hole chain (L234A, L235A, Y349C, T366S, L368A, Y407V; may have H435R, Y436F; EU)) chain (part 1 of 2): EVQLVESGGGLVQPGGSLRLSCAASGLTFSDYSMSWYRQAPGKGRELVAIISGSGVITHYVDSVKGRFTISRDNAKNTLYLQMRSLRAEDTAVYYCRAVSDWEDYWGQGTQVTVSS chain (part 2 of 2): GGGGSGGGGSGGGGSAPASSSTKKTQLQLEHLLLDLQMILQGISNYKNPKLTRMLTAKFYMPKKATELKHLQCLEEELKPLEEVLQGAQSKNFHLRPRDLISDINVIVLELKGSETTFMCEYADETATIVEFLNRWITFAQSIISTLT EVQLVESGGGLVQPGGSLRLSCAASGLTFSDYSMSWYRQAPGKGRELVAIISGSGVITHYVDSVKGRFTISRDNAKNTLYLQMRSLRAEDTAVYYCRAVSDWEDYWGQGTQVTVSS	5.2
A-N88D-M15 (Fc fusion, not shown: IgG1 hinge (C220S) + Fc Knob chain as in A-N88D; IgG1 hinge (C220S) + Fc Hole chain as in A-N88D) chain (part 1 of 2): EVQLVESGGGLVQPGGSLRLSCAASGLTFSDYSMSWYRQAPGKGRELVAIISGSGGITHYVDSVKGRFTISRDNAKNTLYLQMRSLRAEDTAVYYCRAVSDWEDYWGQGTQVTVSS chain (part 2 of 2): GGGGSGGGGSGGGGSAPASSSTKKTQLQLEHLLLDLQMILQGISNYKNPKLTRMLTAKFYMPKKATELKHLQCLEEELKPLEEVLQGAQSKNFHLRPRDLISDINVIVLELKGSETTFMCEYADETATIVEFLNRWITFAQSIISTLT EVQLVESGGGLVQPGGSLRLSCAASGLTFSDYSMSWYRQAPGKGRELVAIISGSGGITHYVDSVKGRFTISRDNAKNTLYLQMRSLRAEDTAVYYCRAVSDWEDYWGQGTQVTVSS	8.9
A-N88D-M26 (Fc fusion, not shown: IgG1 hinge (C220S) + Fc Knob chain as in A-N88D; IgG1 hinge (C220S) + Fc Hole chain as in A-N88D) chain (part 1 of 2): EVQLVESGGGLVQPGGSLRLSCAASGLTFSSYSMSWYRQAPGKGRELVAIISGSGGITHYVDSVKGRFTISRDNAKNTLYLQMRSLRAEDTAVYYCRAVSDWEDYWGQGTQVTVSS chain (part 2 of 2): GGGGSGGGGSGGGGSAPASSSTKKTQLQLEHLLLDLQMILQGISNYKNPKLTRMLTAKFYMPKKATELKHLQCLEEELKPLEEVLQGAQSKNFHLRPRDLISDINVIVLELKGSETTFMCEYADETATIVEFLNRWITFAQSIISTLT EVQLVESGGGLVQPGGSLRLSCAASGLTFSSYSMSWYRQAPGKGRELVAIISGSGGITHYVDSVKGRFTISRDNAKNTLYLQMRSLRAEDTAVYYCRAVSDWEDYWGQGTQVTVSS	3.7

Prompt: Assign M07e-hPD-1 cell proliferation ratio (%) at 0.0001 nM to the following record: A-N88D-M27 (Fc fusion, not shown: IgG1 hinge (C220S) + Fc Knob chain as in A-N88D; IgG1 hinge (C220S) + Fc Hole chain as in A-N88D) chain (part 1 of 2): EVQLVESGGGLVQPGGSLRLSCAASGLTFSSYSMSWYRQAPGKGRELVAIISGSGGITHYVDSVKGRFTISRDNAKNTLYLQMRSLRAEDTAVYYCRAVSDWQDYWGQGTQVTVSS chain (part 2 of 2): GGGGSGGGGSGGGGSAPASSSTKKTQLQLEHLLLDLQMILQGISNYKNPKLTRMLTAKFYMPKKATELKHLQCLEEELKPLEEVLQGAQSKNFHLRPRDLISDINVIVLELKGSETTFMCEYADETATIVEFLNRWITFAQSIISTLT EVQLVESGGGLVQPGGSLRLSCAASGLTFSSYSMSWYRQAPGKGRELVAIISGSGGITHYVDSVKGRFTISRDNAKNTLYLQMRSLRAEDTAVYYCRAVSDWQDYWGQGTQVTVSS
Response: 7.5
